experiment: Plasma protein binding in mouse; assay type: ADME, cell-free; settings: read-out: PPB
experimental.endpoint: fraction unbound

The recorded fraction unbound for Cc1cn(-c2ccc3c(c2)CCc2sc(Cc4ccccc4)nc2N3)cn1 is < 0.002

----------
test: Plasma concentration in 3x transgenic Alzheimer's disease mouse model at 1 mg/kg, po measured after 3 hrs; format: ADME, organism-based; details: 3x transgenic Alzheimer's disease model
experimental.endpoint: concentration at 3 h (nM)
Answer format: numeric, nM implied, no suffix.

Cc1cn(-c2ccc3c(c2)CCc2sc(Cc4ccccc4)nc2N3)cn1 yielded concentration at 3 h of 210

----------
test: Plasma protein binding in human; assay type: ADME, cell-free; settings: read-out: PPB
experimental.endpoint: fraction unbound

Quick note, fraction unbound for Cc1cn(-c2ccc3c(c2)CCc2sc(Cc4ccccc4)nc2N3)cn1 landed at < 0.002

----------
assay: Ratio of total drug level in brain to plasma in 3x transgenic mouse model of Alzheimer's disease at 30 mg/kg, po measured after 3 hrs; type: ADME, organism-based; conditions: 3x transgenic Alzheimer's disease model, read-out: BPR
experimental.endpoint: Kp at 3 h
Give the value as a plain number.

Kp at 3 h reported for this compound Cc1cn(-c2ccc3c(c2)CCc2sc(Cc4ccccc4)nc2N3)cn1 : 1.1

----------
molecular target: Gamma-secretase; assay: Modulation of gamma secretase in human H4 cells transfected with APP751 SWE clone 8.20 mutant assessed as inhibition of amyloid beta (1 to 42) production after 19 hrs; type: cell-based
experimental.endpoint: pIC50
Please express pIC50 as -log10 of the molar concentration.

CNc1nc(Nc2ccc(-n3cncn3)c(OC)c2)nc(-c2ccccc2)n1 : 6.74

Field: next compound
Gamma-secretase data for CNc1nc(Cc2ccccc2)nc(Nc2ccc(-n3cnc(C)c3)c(OC)c2)n1 ; its pIC50: 7.54
